# pIC50 against Aurora kinase A (Homo sapiens, UniProt O14965), merged from multiple literature sources
# study-target: Aurora kinase A (Homo sapiens, UniProt O14965)
# Sequence (O14965 whole entry): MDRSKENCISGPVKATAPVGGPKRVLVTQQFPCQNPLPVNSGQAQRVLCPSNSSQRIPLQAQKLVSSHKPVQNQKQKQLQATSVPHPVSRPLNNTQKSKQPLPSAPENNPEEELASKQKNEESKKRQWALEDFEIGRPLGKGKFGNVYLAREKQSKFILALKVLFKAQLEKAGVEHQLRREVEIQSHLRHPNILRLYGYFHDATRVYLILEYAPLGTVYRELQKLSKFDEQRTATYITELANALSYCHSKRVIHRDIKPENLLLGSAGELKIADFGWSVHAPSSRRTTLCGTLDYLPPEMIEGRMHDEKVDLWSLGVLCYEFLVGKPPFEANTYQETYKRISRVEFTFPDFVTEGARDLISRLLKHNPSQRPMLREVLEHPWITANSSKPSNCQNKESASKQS
Units for pIC50: none; it is -log10 of a concentration expressed in mol/L.

QUERY: I would be grateful if you could share the reported pIC50 for CN1CCN(C(=O)c2cc(Nc3ncc4cc(-c5cnn(C)c5)n(C5CCCC5)c4n3)cn2C)CC1 .
RESULT: 8.70

QUERY: What value of measured pIC50 is listed for CN1C(=O)c2ccccc2N(C)c2nc(Nc3ccc(S(N)(=O)=O)cc3)ncc21 ?
RESULT: 8.32

QUERY: Need pIC50, item Cn1cc(-c2cnc(N)c(Oc3ccc(C(=O)Nc4cccc(Cl)c4)cc3)n2)cn1
RESULT: 6.18

QUERY: Consider the compound shown here: C[C@@H](Oc1nc(-c2cnn(C(F)F)c2)cc2ncsc12)[C@H]1CNC(=O)O1 What is its recorded pIC50?
RESULT: 7.24

QUERY: Please give the measured pIC50 for this compound: Cc1cc(Nc2nc(-c3ccccc3)nc3cc(F)ccc23)n[nH]1
RESULT: 7.14

QUERY: Which pIC50 is reported for this compound? COc1cc2nccc(Oc3ccc4c(C(=O)NC5CC5)cccc4c3)c2cc1C(N)=O
RESULT: 5.36

QUERY: For the compound shown here, c1ccc(-c2oc3ncnc(NCCN4CCOCC4)c3c2-c2ccccc2)cc1 , give the reported pIC50.
RESULT: 5.75

QUERY: Reported pIC50, compound COc1cc2nccc(Oc3ccc4c(C(=O)NC5CCC5)cccc4c3)c2cc1OC : ____
RESULT: 6.36
